MEASUREMENT TARGET: T1, Recombinant Human DLL4 (delta-like protein 4) (human, UniProt Q9NR61 27-524)
T1 construct: Bought recombinant human DLL4 (R&D Systems Cat#1506-D4/CF) coated on the ELISA plate; also called rHuman DLL4; Delta-like ligand 4
MEASUREMENT PROTOCOL: ELISA, DLL4 coated on plate, 100 nM Fab
QUANTITY NAME: ELISA Signal-blank (100 nM Fab)
In your answer, state the number alone without any accompanying words.

Example cases with answers are listed next.
Fab VH5-51_IGHD5-18*01>3_IGHJ4*01 G100K/G104T G24T/S28R/G35V (H:KT TRV) & V3-4_IGLJ1*01 V91L/S96P T53R (Fab, V domains shown, Fab made in E. coli: VH in plasmid A (CH1, His6 and Flag tags), VL in plasmid E (lambda CL); also called H:KT TRV & L:LP T53R) VH: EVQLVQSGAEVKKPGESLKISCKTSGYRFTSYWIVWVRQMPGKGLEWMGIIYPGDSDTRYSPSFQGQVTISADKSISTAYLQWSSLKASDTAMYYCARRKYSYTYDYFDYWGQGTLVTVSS VL: QTVVTQEPSFSVSPGGTVTLTCGLSSGSVSTSYYPSWYQQTPGQAPRTLIYSRNTRSSGVPDRFSGSILGNKAALTITGAQADDESDYYCLLYMGPGISYVFGTGTKVTVL :: 0.05
Fab VH5-51_IGHD5-18*01>3_IGHJ4*01 G100K/G104T G24T/S28R/G35V (H:KT TRV) & V3-4_IGLJ1*01 V91L/S96P S57Q (Fab, V domains shown, Fab made in E. coli: VH in plasmid A (CH1, His6 and Flag tags), VL in plasmid E (lambda CL); also called H:KT TRV & L:LP S57Q) VH: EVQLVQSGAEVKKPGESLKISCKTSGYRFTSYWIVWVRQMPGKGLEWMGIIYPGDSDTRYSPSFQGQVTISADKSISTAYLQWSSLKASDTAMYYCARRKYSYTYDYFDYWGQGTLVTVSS VL: QTVVTQEPSFSVSPGGTVTLTCGLSSGSVSTSYYPSWYQQTPGQAPRTLIYSTNTRQSGVPDRFSGSILGNKAALTITGAQADDESDYYCLLYMGPGISYVFGTGTKVTVL :: 0.21

Per the records, this binder ( Fab VH5-51_IGHD5-18*01>3_IGHJ4*01 G100K/G104T G24T/S28R/G35V (H:KT TRV) & V3-4_IGLJ1*01 V91L/S96P S57V (Fab, V domains shown, Fab made in E. coli: VH in plasmid A (CH1, His6 and Flag tags), VL in plasmid E (lambda CL); also called H:KT TRV & L:LP S57V) VH: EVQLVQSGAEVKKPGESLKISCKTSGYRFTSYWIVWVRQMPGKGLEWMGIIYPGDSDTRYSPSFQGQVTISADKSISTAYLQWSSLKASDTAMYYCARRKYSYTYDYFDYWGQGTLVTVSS VL: QTVVTQEPSFSVSPGGTVTLTCGLSSGSVSTSYYPSWYQQTPGQAPRTLIYSTNTRVSGVPDRFSGSILGNKAALTITGAQADDESDYYCLLYMGPGISYVFGTGTKVTVL ) has ELISA Signal-blank (100 nM Fab) equal to 0.34

Cited source: patent US20120316071A1
